- Test system: Echinochloa crus-galli (ECHCG)
- Assay Overview: Test Example 1 pre-emergence herbicidal activity
- Assay type: in vivo
- Reported Conditions: Echinochloa crus-galli, 480 h, rate 250 g/ha, evaluated 20 days later, read-out: Pre-emergence activity ECHCG (100=total damage to plant; 0=no damage to plant)
Reported Property: pest or weed control at 250 g/ha

Give me pest or weed control at 250 g/ha for each of these compounds, listed below.
1. Cc1cc(C)c(C2=C(O)[C@@H]3[C@@H]4O[C@@H](C[C@H]4c4ccccc4)[C@@H]3C2=O)c(C)c1 [Example T56]
2. CC[C@@H]1C[C@@H]2O[C@H]1[C@H]1C(O)=C(c3c(C)cc(C)cc3C)C(=O)[C@H]12 [Example T106]
3. CCc1cc(C)cc(CC)c1C1=C(O)[C@@H]2[C@@H]3O[C@@H](C[C@H]3c3cccc(F)c3C#N)[C@@H]2C1=O [Example T157]
4. CC[C@H]1C[C@@H]2O[C@H]1[C@H]1C(O)=C(c3c(C)cc(C)cc3C)C(=O)[C@H]12 [Example T107]
5. C#CCOC(=O)OC1=C(c2c(CC)cc(C)cc2CC)C(=O)[C@@H]2[C@H]1[C@H]1CC[C@@H]2O1 (racemic) [Example P25]
6. CCCCCCC(=O)OC1=C(c2c(CC)cc(C)cc2CC)C(=O)[C@@H]2[C@H]1[C@H]1CC[C@@H]2O1 (racemic) [Example P20]

(A)
1. 100%
2. 100%
3. 50%
4. 100%
5. 100%
6. 100%

====

So I've got a bunch of compounds here, and I need their pest or weed control at 250 g/ha values.
- Tested on: Echinochloa crus-galli (ECHCG)
- Assay Overview: Test Example 1 pre-emergence herbicidal activity
- Assay type: in vivo
- Reported Conditions: Echinochloa crus-galli, 480 h, rate 250 g/ha, evaluated 20 days later, read-out: Pre-emergence activity ECHCG (100=total damage to plant; 0=no damage to plant)
Numbers only, in %.

(Q) State its pest or weed control at 250 g/ha for this compound: CCOC(=O)OC1=C(c2c(CC)cc(C)cc2CC)C(=O)[C@@H]2[C@H]1[C@H]1CC[C@@H]2O1 (racemic) [Example P18]
(A) 100

(Q) Please list pest or weed control at 250 g/ha recorded for the compound Cc1cc(C)c(C2=C(O)[C@@H]3[C@@H]4O[C@@H](C[C@H]4/C=C/c4ccccc4)[C@@H]3C2=O)c(C)c1 [Example T98]
(A) 30

(Q) Output pest or weed control at 250 g/ha of CCc1cc(C)cc(CC)c1C1=C(O)[C@@H]2[C@@H]3O[C@@H](C[C@H]3c3ccc(C(C)=O)cc3)[C@@H]2C1=O [Example T171]
(A) 70

(Q) Find the measured pest or weed control at 250 g/ha of CCc1cc(C)cc(C)c1C1=C(O)[C@H]2[C@@H](C1=O)[C@@H]1CC[C@H]2O1 [Example T2] and report it.
(A) 100

(Q) Retrieve pest or weed control at 250 g/ha measured for CCc1cc(C)cc(CC)c1C1=C(O)[C@@H]2[C@@H]3O[C@@H](C[C@H]3c3cc(OC)c(OC)c(OC)c3)[C@@H]2C1=O (racemic) [Example T181] and print it.
(A) 100

Next:
(Q) Item CCc1cc(C)cc(CC)c1C1=C(O)[C@H]2[C@@H](C1=O)[C@@H]1CC[C@@]2(COCC#N)O1 [Example T27] : provide pest or weed control at 250 g/ha
(A) 100
